# assayed-target: Sodium-dependent dopamine transporter (Rattus norvegicus)
# Sequence (P23977 whole entry): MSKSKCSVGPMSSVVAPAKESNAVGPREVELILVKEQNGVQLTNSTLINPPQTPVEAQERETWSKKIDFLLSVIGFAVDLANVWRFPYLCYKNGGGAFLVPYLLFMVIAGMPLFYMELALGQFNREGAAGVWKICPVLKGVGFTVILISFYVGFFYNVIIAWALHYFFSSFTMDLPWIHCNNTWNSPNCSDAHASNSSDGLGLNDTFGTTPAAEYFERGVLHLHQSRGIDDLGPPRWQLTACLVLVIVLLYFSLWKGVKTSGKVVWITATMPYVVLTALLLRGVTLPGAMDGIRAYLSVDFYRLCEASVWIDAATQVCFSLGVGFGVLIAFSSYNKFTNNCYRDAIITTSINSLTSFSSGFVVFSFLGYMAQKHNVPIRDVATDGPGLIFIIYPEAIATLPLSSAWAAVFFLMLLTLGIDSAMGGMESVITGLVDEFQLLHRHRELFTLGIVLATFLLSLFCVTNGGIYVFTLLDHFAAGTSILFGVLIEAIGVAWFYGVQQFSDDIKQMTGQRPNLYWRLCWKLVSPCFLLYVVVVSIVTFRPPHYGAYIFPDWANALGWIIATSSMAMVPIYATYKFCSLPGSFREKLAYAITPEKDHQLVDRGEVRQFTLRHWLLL
The entries below come with measured Ki values attached.

{"columns": ["test-smiles", "Ki / µM"],
 "data": [
  ["CN1CC(OCc2ccccc2)(c2ccccc2)C1", 1.73],
  ["Clc1ccc(COC2(c3ccc(Cl)cc3)CNC2)cc1", 3.83],
  ["CN1CC(OCc2ccc(Cl)cc2)(c2ccccc2)C1", 3.91],
  ["CN1CC(OCc2ccc(Cl)cc2)(c2ccc(Cl)cc2)C1", 2.03],
  ["CN1CC(OCc2ccccc2)(c2ccc(Cl)c(Cl)c2)C1", 0.62],
  ["Clc1ccc(COC2(c3ccccc3)CNC2)cc1Cl", 2.82]
]}

---

# assayed-target: Sodium-dependent serotonin transporter (Rattus norvegicus)
# Sequence (P31652 whole entry): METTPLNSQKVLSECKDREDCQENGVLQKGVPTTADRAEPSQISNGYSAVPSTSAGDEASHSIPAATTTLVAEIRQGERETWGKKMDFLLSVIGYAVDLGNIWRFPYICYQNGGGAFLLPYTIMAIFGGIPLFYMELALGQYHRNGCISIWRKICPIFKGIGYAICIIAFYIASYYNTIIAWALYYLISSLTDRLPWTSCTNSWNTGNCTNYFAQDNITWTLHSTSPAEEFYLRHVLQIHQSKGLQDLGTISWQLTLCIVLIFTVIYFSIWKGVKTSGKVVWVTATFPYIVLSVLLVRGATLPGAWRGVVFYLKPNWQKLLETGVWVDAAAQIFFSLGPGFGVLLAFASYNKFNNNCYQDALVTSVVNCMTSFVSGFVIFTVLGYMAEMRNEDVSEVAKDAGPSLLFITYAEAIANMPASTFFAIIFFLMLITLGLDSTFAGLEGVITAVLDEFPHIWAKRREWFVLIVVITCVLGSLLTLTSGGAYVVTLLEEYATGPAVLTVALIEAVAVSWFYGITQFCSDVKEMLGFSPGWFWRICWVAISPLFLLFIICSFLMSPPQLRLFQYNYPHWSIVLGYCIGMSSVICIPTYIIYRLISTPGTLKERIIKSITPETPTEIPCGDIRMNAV
Each record is given YES if its reported Ki is strictly below 8 nM. Records at or above 8 nM are given NO.

{"columns": ["test-smiles", "assayed-target", "category"],
 "data": [
  ["c1ccc(COC2(c3ccccc3)CNC2)cc1", "Sodium-dependent serotonin transporter (Rattus norvegicus)", "NO"],
  ["Clc1ccc(C2(OCc3ccccc3)CNC2)cc1", "Sodium-dependent serotonin transporter (Rattus norvegicus)", "NO"],
  ["CN1CC(OCc2ccc(Cl)cc2)(c2ccc(Cl)c(Cl)c2)C1", "Sodium-dependent serotonin transporter (Rattus norvegicus)", "YES"],
  ["CN1CC(OCc2ccc(Cl)c(Cl)c2)(c2ccccc2)C1", "Sodium-dependent serotonin transporter (Rattus norvegicus)", "YES"],
  ["CN1CC(OCc2ccccc2)(c2ccc(Cl)c(Cl)c2)C1", "Sodium-dependent serotonin transporter (Rattus norvegicus)", "NO"],
  ["CN1CC(OCc2ccc(Cl)c(Cl)c2)(c2ccc(Cl)cc2)C1", "Sodium-dependent serotonin transporter (Rattus norvegicus)", "YES"],
  ["Clc1ccc(COC2(c3ccccc3)CNC2)cc1", "Sodium-dependent serotonin transporter (Rattus norvegicus)", "NO"],
  ["Clc1ccc(C2(OCc3ccccc3)CNC2)cc1Cl", "Sodium-dependent serotonin transporter (Rattus norvegicus)", "NO"],
  ["Clc1ccc(COC2(c3ccc(Cl)cc3)CNC2)cc1", "Sodium-dependent serotonin transporter (Rattus norvegicus)", "YES"],
  ["CN1CC(OCc2ccccc2)(c2ccccc2)C1", "Sodium-dependent serotonin transporter (Rattus norvegicus)", "NO"],
  ["Clc1ccc(COC2(c3ccccc3)CNC2)cc1Cl", "Sodium-dependent serotonin transporter (Rattus norvegicus)", "YES"]
]}

---

# Organism: Rattus norvegicus
# assay: Selectivity ratio of Ki for DAT in Sprague-Dawley rat brain homogenate to Ki for SERT in Sprague-Dawley rat brain homogenate
# Format: tissue-based
Each record is given label 1 if its reported Ratio Ki is strictly below 30. Records at or above 30 are given label 0.

{"columns": ["test-smiles", "category"],
 "data": [
  ["Clc1ccc(C2(OCc3ccc(Cl)c(Cl)c3)CNC2)cc1", "label 0"],
  ["CN1CC(OCc2ccccc2)(c2ccc(Cl)c(Cl)c2)C1", "label 1"],
  ["Clc1ccc(COC2(c3ccccc3)CNC2)cc1", "label 1"],
  ["Clc1ccc(COC2(c3ccc(Cl)c(Cl)c3)CNC2)cc1Cl", "label 0"],
  ["Clc1ccc(COC2(c3ccc(Cl)c(Cl)c3)CNC2)cc1", "label 0"],
  ["Clc1ccc(C2(OCc3ccccc3)CNC2)cc1Cl", "label 1"],
  ["Clc1ccc(COC2(c3ccccc3)CNC2)cc1Cl", "label 0"],
  ["c1ccc(COC2(c3ccccc3)CNC2)cc1", "label 1"],
  ["CN1CC(OCc2ccccc2)(c2ccccc2)C1", "label 1"],
  ["Clc1ccc(COC2(c3ccc(Cl)cc3)CNC2)cc1", "label 0"],
  ["CN1CC(OCc2ccc(Cl)cc2)(c2ccccc2)C1", "label 0"],
  ["Clc1ccc(C2(OCc3ccccc3)CNC2)cc1", "label 1"]
]}
